Measured target: Solute carrier family 2, facilitated glucose transporter member 1 (Homo sapiens)
Assay summary: ST_JUDE_LEISH: Cytotoxicity at 2uM final concentration against transgenic Leishmania Mexicana promastigotes LmGLUT1 that are glucose transport deficient and complemented with the human glucose transporter GLUT1. Activity is measured by DNA content using SYBR green in vitro
Assay type: functional
Recorded inhibition values for a group of compounds are listed next.
Use % as the unit, but write only the number.

Worked examples, 6 compounds total:
Lookup: Fill in the blank: the reported inhibition of `Oc1ccc(CCNCCCCCCNCCc2ccc(Cl)cc2)c(Cl)c1O` is ____.
Found: -2.47

Lookup: Recorded inhibition of `O=C(NCCc1ccc(Cl)c(Cl)c1)[C@@H]1CCCN1C(=O)c1ccc(O)c(-c2ccc(Cl)c(Cl)c2)c1` , please.
Found: -1.56

Lookup: Which inhibition is listed for `CN(C)Cc1c(O)ccc2[nH]c(-c3ccc(F)cc3F)nc12` ?
Found: 1.13

Lookup: inhibition lookup needed for `O=C(NC1CCCCC1)N(Cc1cccc(-c2ccc(CNCCc3ccccc3)cc2)c1)C1CCN(Cc2ccccc2)CC1` , thanks.
Found: 6.68

Lookup: Endpoint output: inhibition of `CC(C)CNCc1cccc(-c2ccccc2CNC2CCN(Cc3ccccc3)CC2)c1` . Value?
Found: 5.47

Lookup: Could you share which inhibition value was measured for CCCCCN1CCC(NS(=O)(=O)c2ccc(C(=O)Nc3cccc(C(F)(F)F)c3)cc2)C1 (stereo not given) ?
Found: 8.42

Further cases:
Lookup: Please report the recorded inhibition for `CCc1cc2c(Sc3nnc(N)s3)ncnc2s1` .
Found: 2.44

Lookup: Given OC[C@H](Nc1nc(C(Oc2ccccc2)c2ccccc2)nc2[nH]ncc12)c1ccccc1 (stereo not given in full) , state its recorded inhibition.
Found: 7.13

Lookup: Consider the compound shown here: `O=C(/C=C/c1ccc(Cl)c(Cl)c1)NCCCCCN1CCC(NC(=O)Nc2cc(Cl)ccc2Cl)CC1` What is its recorded inhibition?
Found: 9.69

Lookup: Which inhibition reading was recorded for the compound `Oc1ccc(CCNc2nc(NCCOc3ccccc3-c3ccccc3)nc(N3CCNCC3)n2)cc1` ?
Found: 1.26
